Target: SARS-COV-2 RBD-MMH (SARS-CoV-2)
Assay: SPR 37C, run with dissociation at pH 5.0
Catalogue of koff readings, one per entry.

mAb15162 (antibody, V domains shown) VH: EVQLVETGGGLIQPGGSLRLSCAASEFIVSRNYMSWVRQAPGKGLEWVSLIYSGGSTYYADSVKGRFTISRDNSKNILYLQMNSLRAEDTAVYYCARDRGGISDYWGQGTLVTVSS VL: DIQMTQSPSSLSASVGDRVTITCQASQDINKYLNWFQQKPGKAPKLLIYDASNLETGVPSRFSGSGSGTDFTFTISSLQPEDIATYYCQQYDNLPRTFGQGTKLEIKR	0.0054 s⁻¹

The value of koff measured for the binder mAb15170 (antibody, V domains shown) VH: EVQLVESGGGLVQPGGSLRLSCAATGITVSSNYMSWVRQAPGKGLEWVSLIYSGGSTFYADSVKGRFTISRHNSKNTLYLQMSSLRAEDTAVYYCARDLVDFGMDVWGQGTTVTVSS VL: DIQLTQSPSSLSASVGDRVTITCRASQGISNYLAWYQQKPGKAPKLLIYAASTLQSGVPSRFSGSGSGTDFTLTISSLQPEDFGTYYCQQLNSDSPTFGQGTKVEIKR turned out to be 6.62e-05 s⁻¹

Measured values drawn from patent US20260069689A1 for this set.
